Target: human RORγt LBD (Homo sapiens)
Construct: expressed in transfected cells
Sequence (P51449 258-518): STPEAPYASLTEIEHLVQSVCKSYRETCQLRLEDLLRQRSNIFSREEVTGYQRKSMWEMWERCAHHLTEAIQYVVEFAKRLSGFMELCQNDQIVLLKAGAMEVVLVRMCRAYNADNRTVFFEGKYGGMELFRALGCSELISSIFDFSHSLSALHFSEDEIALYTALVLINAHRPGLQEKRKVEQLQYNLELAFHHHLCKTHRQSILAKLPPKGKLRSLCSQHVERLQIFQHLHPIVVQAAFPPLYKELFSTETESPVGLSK
Assay: RORγt reporter assay (GAL4-RORγt LBD luciferase in HEK293T cells)
Type: cell-based
Details: HEK-293T, read-out: RORγt reporter Assay, % inhibition @ 6 μM, HEK293T cells, 6 μM compound
A collection of compounds and their measured inhibition at 6 µM
Your answer is read as %, so omit the unit and give the number.

# example entries with known answers
# compound, recordedValue
records = [
    ("Cc1ccc(C(O)(c2cc(C)c3nc(Cl)c(-c4ccccc4)c(Cl)c3c2)c2sccc2C)cn1 (centres unmarked) [Example 158]", 79),
    ("Cn1cncc1C(O)(c1ccncc1)c1ccc2nc(N3CCC(O)CC3)c(-c3ccccc3)c(Cl)c2c1 (centres unmarked) [Example 72]", 83),
]

The observed inhibition at 6 µM for Cn1cncc1C(O)(c1cncnc1)c1ccc2nc(Cl)c(-c3ccccc3)c(Cl)c2c1 (centres unmarked) [Example 120] when tested with human RORγt LBD (Homo sapiens) stands at 98

The observed inhibition at 6 µM for COc1nc2c(C)cc(C(O)(c3ccc(F)cc3)c3cncn3C)cc2c(C#N)c1-c1cccc(F)c1 (single isomer, unassigned) [Example 180b] when tested with human RORγt LBD (Homo sapiens) stands at 80

The observed inhibition at 6 µM for CCN1CCC(C(O)(c2ccccc2)c2ccc3nc(C(F)(F)F)c(-c4ccccc4)c(C(F)(F)F)c3c2)CC1 (centres unmarked) [Example 168] when tested with human RORγt LBD (Homo sapiens) stands at 71

The observed inhibition at 6 µM for CCN(CC)c1nc2ccc(C(O)(c3cccnc3)c3cccc(Cl)c3)cc2c(Cl)c1-c1ccccc1 (centres unmarked) [Example 100] when tested with human RORγt LBD (Homo sapiens) stands at 95

The observed inhibition at 6 µM for Cc1nn(C)c(C)c1C(O)(c1ccccc1)c1ccc2nc(Cl)c(-c3ccccc3)c(Cl)c2c1 (centres unmarked) [Example 4] when tested with human RORγt LBD (Homo sapiens) stands at 97

The observed inhibition at 6 µM for CN(C)c1nc2ccc(C(O)(c3ccc(Cl)cc3)c3cccnc3)cc2c(Cl)c1-c1ccccc1 (centres unmarked) [Example 32] when tested with human RORγt LBD (Homo sapiens) stands at 97
